conditions: in n-butanol, 323.15 K
measurementName: solubility (mole fraction)

smilescode=Nc1nc(NC2CC2)c2ncn([C@H]3C=C[C@@H](CO)C3)c2n1 measurementname="solubility (mole fraction)" obsvalue=0.0231

###

conditions: in isobutanol, 308.15 K
measurementName: solubility (mole fraction)

smilescode=Nc1nc(NC2CC2)c2ncn([C@H]3C=C[C@@H](CO)C3)c2n1 obsvalue=0.0131

###

conditions: in ethanol, 278.15 K
measurementName: solubility (mole fraction)

smilescode=Nc1nc(NC2CC2)c2ncn([C@H]3C=C[C@@H](CO)C3)c2n1 measurementname="solubility (mole fraction)" obsvalue=0.00601

###

conditions: in n-propanol, 313.15 K
measurementName: solubility (mole fraction)

smilescode=Nc1nc(NC2CC2)c2ncn([C@H]3C=C[C@@H](CO)C3)c2n1 measurementname="solubility (mole fraction)" obsvalue=0.0184
